Tested on: CL141
Test Description: Clonogenic assay
Format: cell-based
Measurement Conditions: CL141; approximately 1,000 cells seeded, 14 days
From the text: […] […] After the treatments, cells were washed with PBS, and the colonies were fixed with fix solution (methanol: acetic acid=3:1) and stained with 0.5% crystal violet in methanol. After removing the crystal violet carefully and rinse with tap water, the colonies were counted manually.
Measurement Type: Clonogenic assay for prochlorperazine analogs

Reference set (2 entries):
INSERT INTO measurements (record_smiles, recorded_value) VALUES
  ('CCN(CC)CCCN1c2ccccc2Sc2ccc(Cl)cc21', '5-10 μM'),
  ('CC1(C)CCCN1CCCN1c2ccccc2Sc2ccc(Cl)cc21', '5-10 μM');

Please state, for each entry, its recorded Clonogenic assay for prochlorperazine analogs.
1. CN(C)c1ccc(-c2c3ccccc3nc3ccc(Cl)cc23)cc1
2. CCc1ccc2c(c1)N(CCCN(CCCl)CCCl)c1ccccc1S2

Response line:
1. 2.5-5 μM
2. 1-2.5 μM

====

Test system: CL141
Test Description: Cytotoxicity, sulforhodamine B (SRB) assay
Assay type: cell-based
Measurement Conditions: read-out: IC50 for prochlorperazine metabolites, CL141 parental cells
Would you kindly list IC50 for each of these compounds?

Reference set (3 entries):
INSERT INTO measurements (compound, system, measurement_type, recorded_value) VALUES
  ('CN1CCN(CCCN2c3ccccc3[S+]([O-])c3ccc(Cl)cc32)CC1 (stereo not shown) [Prochlorperazine sulfoxide]', 'CL141', 'IC50', '> 20 µM'),
  ('C[N+]1([O-])CCN(CCCN2c3ccccc3[S+]([O-])c3ccc(Cl)cc32)CC1 (stereo not shown) [Prochlorperazine sulfoxide 4′-N-oxide]', 'CL141', 'IC50', '> 20 µM'),
  ('Clc1ccc2c(c1)N(CCCN1CCNCC1)c1ccccc1S2', 'CL141', 'IC50', '5 to 10 µM');

Please examine the following record next.
Prompt line: Item under review: CN1CCN(CCCN2c3ccccc3Sc3ccc(Cl)cc32)CC1 . Reported IC50?
Response line: 10 to 20 µM
